- test-system: HRgpA-6H (Porphyromonas gingivalis) (UniProt P28784)
- test-protocol: ELISA, FASEBA Fab on coated HRgpA-6H
// Ratio OD(Variant)/OD(WT) lookup, one value per entry
Give only the figure.

Requested field: Ratio OD(Variant)/OD(WT). Item: KB001 mouse Fab VL S31Y (Fab, V domains shown) VH: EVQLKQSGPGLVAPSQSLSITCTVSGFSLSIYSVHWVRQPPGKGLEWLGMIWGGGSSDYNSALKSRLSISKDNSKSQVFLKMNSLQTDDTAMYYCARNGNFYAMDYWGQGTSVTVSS VL: QIVLTQSPAIMSASLGERVTMTCTASSSVSYSFLHWYQQKPGSSPQLWIYSTSNLASGVPARFSGSGSGTSYSLTISSMEAEDAATYYCHQYHHSPYIYTFGGGTKLEIK
1

Requested field: Ratio OD(Variant)/OD(WT). Item: KB001 mouse Fab VL S57R (Fab, V domains shown) VH: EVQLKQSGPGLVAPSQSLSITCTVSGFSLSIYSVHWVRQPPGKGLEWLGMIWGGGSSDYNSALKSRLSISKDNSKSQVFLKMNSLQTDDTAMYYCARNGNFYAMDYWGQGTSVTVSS VL: QIVLTQSPAIMSASLGERVTMTCTASSSVSSSFLHWYQQKPGSSPQLWIYSTSNLARGVPARFSGSGSGTSYSLTISSMEAEDAATYYCHQYHHSPYIYTFGGGTKLEIK
1.04

Requested field: Ratio OD(Variant)/OD(WT). Item: KB001 mouse Fab VL S53C (Fab, V domains shown) VH: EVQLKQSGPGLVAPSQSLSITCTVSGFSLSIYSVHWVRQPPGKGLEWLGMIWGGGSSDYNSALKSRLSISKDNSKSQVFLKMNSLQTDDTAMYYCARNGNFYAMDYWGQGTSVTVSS VL: QIVLTQSPAIMSASLGERVTMTCTASSSVSSSFLHWYQQKPGSSPQLWIYSTCNLASGVPARFSGSGSGTSYSLTISSMEAEDAATYYCHQYHHSPYIYTFGGGTKLEIK
0.885

Requested field: Ratio OD(Variant)/OD(WT). Item: KB001 mouse Fab VL S30K (Fab, V domains shown) VH: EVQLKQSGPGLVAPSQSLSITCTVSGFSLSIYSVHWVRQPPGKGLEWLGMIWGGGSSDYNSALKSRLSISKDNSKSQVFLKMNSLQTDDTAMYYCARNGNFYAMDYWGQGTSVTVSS VL: QIVLTQSPAIMSASLGERVTMTCTASSSVKSSFLHWYQQKPGSSPQLWIYSTSNLASGVPARFSGSGSGTSYSLTISSMEAEDAATYYCHQYHHSPYIYTFGGGTKLEIK
0.893

Requested field: Ratio OD(Variant)/OD(WT). Item: KB001 mouse Fab VL S30E (Fab, V domains shown) VH: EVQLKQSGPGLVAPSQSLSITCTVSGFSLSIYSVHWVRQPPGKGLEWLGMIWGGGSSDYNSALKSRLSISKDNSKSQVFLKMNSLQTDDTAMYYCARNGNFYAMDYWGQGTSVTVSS VL: QIVLTQSPAIMSASLGERVTMTCTASSSVESSFLHWYQQKPGSSPQLWIYSTSNLASGVPARFSGSGSGTSYSLTISSMEAEDAATYYCHQYHHSPYIYTFGGGTKLEIK
0.943
